# measurement target: pCgCDR (ABC) efflux pump in S. cerevisiae YEM-39 (Candida glabrata)
# Sequence (Q6FK23 whole entry): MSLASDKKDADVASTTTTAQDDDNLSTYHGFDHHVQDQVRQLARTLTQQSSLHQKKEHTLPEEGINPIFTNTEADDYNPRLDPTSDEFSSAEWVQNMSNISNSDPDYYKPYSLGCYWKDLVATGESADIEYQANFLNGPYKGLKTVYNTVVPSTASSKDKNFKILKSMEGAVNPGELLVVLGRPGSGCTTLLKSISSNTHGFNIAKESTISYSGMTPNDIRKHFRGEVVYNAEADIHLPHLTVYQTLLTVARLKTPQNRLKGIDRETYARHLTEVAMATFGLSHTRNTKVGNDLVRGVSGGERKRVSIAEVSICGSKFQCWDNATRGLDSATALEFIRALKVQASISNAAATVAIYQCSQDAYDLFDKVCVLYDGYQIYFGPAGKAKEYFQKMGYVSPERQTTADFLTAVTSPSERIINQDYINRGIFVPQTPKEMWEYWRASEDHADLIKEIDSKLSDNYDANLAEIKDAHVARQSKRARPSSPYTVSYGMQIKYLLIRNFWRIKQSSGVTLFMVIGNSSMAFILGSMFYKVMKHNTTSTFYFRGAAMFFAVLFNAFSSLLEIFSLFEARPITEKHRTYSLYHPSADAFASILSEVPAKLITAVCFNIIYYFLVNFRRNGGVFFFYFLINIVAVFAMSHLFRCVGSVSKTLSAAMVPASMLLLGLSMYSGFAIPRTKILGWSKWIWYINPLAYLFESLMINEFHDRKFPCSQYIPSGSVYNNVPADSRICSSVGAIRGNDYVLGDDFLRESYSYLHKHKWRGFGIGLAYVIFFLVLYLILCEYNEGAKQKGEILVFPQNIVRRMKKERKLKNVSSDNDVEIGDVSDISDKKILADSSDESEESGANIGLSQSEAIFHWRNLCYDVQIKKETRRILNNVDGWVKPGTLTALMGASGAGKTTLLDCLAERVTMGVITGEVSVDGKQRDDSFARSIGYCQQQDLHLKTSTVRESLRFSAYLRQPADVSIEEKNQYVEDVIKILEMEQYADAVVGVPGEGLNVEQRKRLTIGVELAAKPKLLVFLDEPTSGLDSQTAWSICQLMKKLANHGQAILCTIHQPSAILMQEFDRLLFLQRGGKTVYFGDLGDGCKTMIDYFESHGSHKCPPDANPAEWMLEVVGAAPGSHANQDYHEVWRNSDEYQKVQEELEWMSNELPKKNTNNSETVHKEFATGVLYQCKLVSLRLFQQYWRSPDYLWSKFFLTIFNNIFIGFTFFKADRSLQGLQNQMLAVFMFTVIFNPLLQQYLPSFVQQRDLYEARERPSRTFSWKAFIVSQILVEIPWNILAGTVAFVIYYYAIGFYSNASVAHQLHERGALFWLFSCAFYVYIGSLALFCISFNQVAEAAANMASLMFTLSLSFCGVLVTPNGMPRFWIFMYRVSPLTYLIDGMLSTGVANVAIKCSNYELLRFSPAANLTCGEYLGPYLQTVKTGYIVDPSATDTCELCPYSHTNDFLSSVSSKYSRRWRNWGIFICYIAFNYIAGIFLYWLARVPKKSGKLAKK
# assay protocol: cell-based
# Assay type: cell-based, C. glabrata
# cond: read-out: FEPIhalf (concentration needed to reduce activity of efflux pump by 50%); YEM-39 pCgCDR; fluconazole fixed at FLUhalf 4
measured attribute: IC50 (µM)
Just the number please, in µM, no unit attached.

CO[C@H]1C[C@@]2(O)/C(CO)=C/C=C/[C@H](C)C/C(C)=C/C[C@@H]3C[C@@H](C[C@]4(CC[C@H](C)[C@@H](C)O4)O3)OC(=O)[C@@H]2C=C1C    3.67
CCCCC(C)C(=O)OC1[C@@H](O)[C@]2(C[C@@H]3C[C@@H](C/C=C(\C)C[C@@H](C)/C=C/C=C4\CO[C@@H]5[C@H](OC)C(C)=CC(C(=O)O3)[C@]45O)O2)O[C@H](C)[C@H]1C (stereo partly drawn)    1.46

// next entry
Ask: Suppose we examine the molecule CO[C@@H]1C(C)=C[C@H]2C(=O)O[C@H]3C[C@@H](C/C=C(\C)C[C@@H](C)/C=C/C=C4\CO[C@H]1[C@@]42O)O[C@]1(C3)C[C@H](O)[C@H](C)[C@@H](/C(C)=C/C(C)C)O1 ; what IC50 value has been reported?
Reply: 102

---

# Test system: Aspergillus fumigatus
# assay protocol: FEPI MICs in combination with 1/4 the azole's MIC (Table 12)
# Type: cell-based
# cond: ketoconazole 4 μg/ml (1/4 MIC); 60% inhibition
FEPI MIC with ketoconazole, 60% Inh values for the molecules below.
API doc: respond with a numeric literal and nothing else, no unit.

Ask: Return FEPI MIC with ketoconazole, 60% Inh measured with Aspergillus fumigatus given this molecule: CCC(C)C1OC2(CC3CC(CC=C(C)C(O)C(C)C=CC=C4COC5C(O)C(C)=CC(C(=O)O3)C45O)O2)CC(O)C1C (stereo not drawn) [Compound 14, Avermectin β2a aglycone]
Reply: 2

---

Catalogue of FEPI MIC with itraconazole, 60% Inh readings, one per entry.
# Test system: Aspergillus fumigatus
# assay protocol: FEPI MICs in combination with 1/4 the azole's MIC (Table 12)
# Type: cell-based
# cond: itraconazole 0.063 μg/ml (1/4 MIC); 60% inhibition

For orientation, consider the following solved cases.
CO[C@@H]1C(C)=C[C@H]2C(=O)O[C@H]3C[C@@H](C/C=C(\C)C[C@@H](C)/C=C/C=C4\CO[C@H]1[C@@]42O)O[C@@]1(CC[C@H](C)[C@@H](C)O1)C3 [Compound 4, Milbemycin α2]    2
CC1=C[C@H]2C(=O)O[C@H]3C[C@@H](C/C=C(\C)C[C@@H](C)/C=C/C=C4\CO[C@H]([C@@H]1O)[C@@]42O)O[C@@]1(CC[C@H](C)[C@@H](C)O1)C3 [Compound 3, Milbemycin α1]    8
CO[C@H]1C[C@@]2(O)/C(C=O)=C/C=C/[C@H](C)C/C(C)=C/C[C@@H]3C[C@@H](C[C@]4(CC[C@H](C)[C@@H](C)O4)O3)OC(=O)[C@@H]2C=C1C [Compound 5, Milbemycin β1 aldehyde]    0.5

Let us examine a further case.
Ask: Record request: FEPI MIC with itraconazole, 60% Inh value, item CCC(CC)C(=O)OCC1=C[C@H]2C(=O)O[C@H]3C[C@@H](C/C=C(\C)C[C@@H](C)/C=C/C=C4\CO[C@H]([C@@H]1O)[C@@]42O)O[C@@]1(CC[C@H](C)[C@@H](C)O1)C3 [Compound 21, 4a-O-(2-ethyl)butyryl milbemycin α1]
Reply: 1
